Test system: BDF1 mice, L1210 leukemia sc, survival T/C
Assay: NCI In Vivo Anticancer Drug Screen. Data for tumor model L1210 Leukemia (subcutaneous) in B6D2F1 (BDF1) mice
Conditions: endpoint: median survival time; dose: 1.0 mg/kg/injection; schedule: Q01DX009 (sc); vehicle: water; higher = longer survival
Inconclusive results and toxic doses are left out.
Attribute: T/C

Check out these entries, answers already filled in.
{"columns": ["Molecule", "Target Or System", "T/C"],
 "data": [
  ["CO[C@@]12[C@H](COC(N)=O)C3=C(C(=O)C(C)=C(N)C3=O)N1C[C@@H]1N[C@@H]12", "BDF1 mice, L1210 leukemia sc, survival T/C", "101 % of control"],
  ["CC[n+]1ccc(Nc2ccc(NC(=O)c3ccc(Nc4cc[n+](CC)c5ccc(N)cc45)cc3)cc2)cc1", "BDF1 mice, L1210 leukemia sc, survival T/C", "105 % of control"],
  ["OC(C1CO1)C(O)C1CO1 (centres undefined)", "BDF1 mice, L1210 leukemia sc, survival T/C", "122 % of control"]
]}

Shifting focus to the molecule that follows.
Q: Consider the molecule CO[C@H](C(=O)[C@@H](O)[C@@H](C)O)[C@@H]1Cc2cc3cc(OC4CC(OC5CC(O)C(O)C(C)O5)C(O)C(C)O4)c(C)c(O)c3c(O)c2C(=O)[C@H]1OC1CC(OC2CC(OC3CC(C)(O)C(O)C(C)O3)C(O)C(C)O2)C(O)C(C)O1 (some centres undefined) and give its measured T/C.
A: 101 % of control

---

The entries below come with measured T/C values attached.
Tested on: BDF1 mice, L1210 leukemia sc, survival T/C
Assay: NCI In Vivo Anticancer Drug Screen. Data for tumor model L1210 Leukemia (subcutaneous) in B6D2F1 (BDF1) mice
Settings: endpoint: median survival time; dose: 78.0 mg/kg/injection; schedule: Q01DX Z (sc); vehicle: methylcellulose (MC); higher = longer survival
Toxic doses and inconclusive results are not listed.

Worked cases, T/C given:
{"columns": ["Structure String", "T/C"],
 "data": [
  ["CS(=O)(=O)OCCCCCCCCCOS(C)(=O)=O", "115 % of control"],
  ["Nc1[nH]c(=O)nc2[nH]ncc12", "100 % of control"],
  ["CS(=O)(=O)OCCCCOS(C)(=O)=O", "110 % of control"]
]}

Q: What measured T/C goes with `Nc1ncnc2[nH]ncc12` ?
A: 100 % of control

Q: // query: `Cn1cnc([N+](=O)[O-])c1Sc1ncnc2nc[nH]c12`
A: 120 % of control

---

System: BDF1 mice, L1210 leukemia sc, survival T/C
Experiment: NCI In Vivo Anticancer Drug Screen. Data for tumor model L1210 Leukemia (subcutaneous) in B6D2F1 (BDF1) mice
Settings: endpoint: median survival time; dose: 14.0 mg/kg/injection; schedule: Q## X Z (sc); vehicle: saline
Toxic doses and inconclusive results are not listed. How the source made its calls: active means survival T/C of 150% or more; inactive means T/C below 125% in these data.
Just give me one of these, please: Y (active), N (inactive)

Below are worked cases with known answers.
{"columns": ["Compound", "Discrete Label"],
 "data": [
  ["C=CC(O)CN1CC1 (centres undefined)", "N"],
  ["CC1CC(C)(O)CC(C(O)CC2CC(=O)NC(=O)C2)C1=O (centres undefined)", "N"],
  ["C=CC(CO)N1CC1 (centres undefined)", "N"]
]}

Q: Which result was noted for this compound in the test: `O=NN(CCCl)C(=O)NCCCl`
A: Y

---

Tested on: BDF1 mice, L1210 leukemia sc, survival T/C
Experiment: NCI In Vivo Anticancer Drug Screen. Data for tumor model L1210 Leukemia (subcutaneous) in B6D2F1 (BDF1) mice
Conditions: endpoint: median survival time; dose: 833.0 mg/kg/injection; schedule: Q01DX Z (sc); vehicle: carboxymethylcellulose (CMC); higher = longer survival
Toxic doses and inconclusive results are not listed.
Listed next: entries and their corresponding T/C.

{"columns": ["Molecule", "Target Or System", "Readout Type", "Result"],
 "data": [
  ["Nc1ccc(OC(=O)Oc2ccc(N)cc2)cc1", "BDF1 mice, L1210 leukemia sc, survival T/C", "T/C", "100 % of control"],
  ["O=C1C(NC(=O)C2CCCCC2)=C(N2CC2)C(=O)C(NC(=O)C2CCCCC2)=C1N1CC1", "BDF1 mice, L1210 leukemia sc, survival T/C", "T/C", "100 % of control"],
  ["CN(C)c1ccc(/C=C2\\C=Cc3ccccc32)cc1", "BDF1 mice, L1210 leukemia sc, survival T/C", "T/C", "111 % of control"]
]}

Now consider a different molecule.
Q: # query: T/C | item CC(CNC(=O)CCOS(C)(=O)=O)NC(=O)CCOS(C)(=O)=O (centres undefined) | system: BDF1 mice, L1210 leukemia sc, survival T/C
A: 110 % of control

---

System: BDF1 mice, L1210 leukemia sc, survival T/C
Experiment: NCI In Vivo Anticancer Drug Screen. Data for tumor model L1210 Leukemia (subcutaneous) in B6D2F1 (BDF1) mice
Conditions: endpoint: median survival time; dose: 3.0 mg/kg/injection; schedule: Q01DX Z (sc); vehicle: methylcellulose (MC)
Toxic doses and inconclusive results are not listed. Rule for the calls: active = survival T/C of 150% or more; inactive = T/C below 125% in these data.
Mark one answer only. Choices: YES (active), NO (inactive)

The following molecules have reported results that may help.
{"columns": ["Structure String", "Target Or System", "Discrete Label"],
 "data": [
  ["CN(C)c1ccc(/C=C/c2ccc3ccccc3[n+]2C)cc1", "BDF1 mice, L1210 leukemia sc, survival T/C", "NO"],
  ["CN(C)c1ccc(/C=C/c2cc[n+](C)c3ccccc23)cc1", "BDF1 mice, L1210 leukemia sc, survival T/C", "NO"],
  ["O=NN(CCCl)C(=O)NCCCl", "BDF1 mice, L1210 leukemia sc, survival T/C", "YES"],
  ["Oc1cc(CN(CCCl)CCCl)c(O)cc1CN(CCCl)CCCl", "BDF1 mice, L1210 leukemia sc, survival T/C", "NO"]
]}

Q: For this molecule, state the assay outcome: `Nc1nc(=S)c2[nH]cnc2[nH]1`
A: YES

Q: What do we get for `COC(=N)N` ?
A: NO

Q: Proceed to `CCCn1cnc2c(=S)nc(N)[nH]c21`
A: NO

Q: Also, `O=c1[nH]c(=S)c2[nH]c(=O)[nH]c2[nH]1` please.
A: NO

Q: `Cn1cnc([N+](=O)[O-])c1Sc1nc(N)nc2nc[nH]c12` ?
A: NO

Q: Now consider `O=C(Nc1ccc(C2=NCCCN2)cc1)c1ccc(C(=O)Nc2ccc(C3=NCCCN3)cc2)cc1` and answer again.
A: YES

Q: Moving on to `Nc1ncnc2[nH]ncc12`
A: NO

Q: Next record, please: `CCN1C=C/C(=C\C=C/c2cc[n+](CC)c3ccccc23)c2ccccc21`
A: NO

Q: Let us now turn to `NC(=O)N(CCCl)N=O`
A: YES

---

Test system: BDF1 mice, L1210 leukemia sc, survival T/C
Assay: NCI In Vivo Anticancer Drug Screen. Data for tumor model L1210 Leukemia (subcutaneous) in B6D2F1 (BDF1) mice
Conditions: endpoint: median survival time; dose: 60.0 mg/kg/injection; schedule: Q01DX Z (sc); vehicle: saline
Toxic doses and inconclusive results are not listed. How the source made its calls: active means survival T/C of 150% or more; inactive means T/C below 125% in these data.
Pick from active, inactive when you respond.

// below: answered molecules
{"columns": ["Molecule", "Target Or System", "Discrete Label"],
 "data": [
  ["C=CC(CN1CC1)OC(C)=O (centres undefined)", "BDF1 mice, L1210 leukemia sc, survival T/C", "inactive"],
  ["C=CC(COC(C)=O)N1CC1 (centres undefined)", "BDF1 mice, L1210 leukemia sc, survival T/C", "inactive"]
]}

Q: Kindly provide the recorded test outcome for the following molecule: `S=P(N1CCCCCC1)(N1CC1)N1CC1`
A: active

Q: Next record, please: C=CC(O)CN1CC1 (centres undefined)
A: inactive

---

# T/C values compiled below
System: BDF1 mice, L1210 leukemia sc, survival T/C
Assay: NCI In Vivo Anticancer Drug Screen. Data for tumor model L1210 Leukemia (subcutaneous) in B6D2F1 (BDF1) mice
Details: endpoint: median survival time; dose: 8.4 mg/kg/injection; schedule: Q01DX Z (sc); vehicle: water; higher = longer survival
Toxic doses and inconclusive results are not listed.

Some molecules with recorded T/C:
{"columns": ["Molecule", "T/C"],
 "data": [
  ["O=C(Nc1ccc(C2=NCCCN2)cc1)c1ccc(C(=O)Nc2ccc(C3=NCCCN3)cc2)nc1", "100 % of control"],
  ["COc1cc([C@@H]2c3cc4c(cc3[C@H](OC(=O)CCCC(=O)O)[C@H]3COC(=O)[C@H]23)OCO4)cc(OC)c1OC", "109 % of control"],
  ["O=C(Nc1ccc(C2=NCCN2)cc1)c1cccc(C(=O)Nc2ccc(C3=NCCN3)cc2)c1", "110 % of control"]
]}

Q: # T/C lookup, item NC(Cc1ccc(N(CCCl)CCCl)cc1)C(=O)O (stereo not drawn)
A: 100 % of control

Q: # repeat for `N[C@@H](Cc1ccc(N(CCCl)CCCl)cc1)C(=O)O`
A: 100 % of control
